# TEST METHOD NOTES: Hydrophobicity by analytical RP-HPLC (%B at peak elution)
# Assay type: physicochemical
# EXPERIMENTAL CONTEXT: chromatographic, percentage of mobile phase B at the peak elution time
Where a SMILES comes first, the peptide text is derived from it. [ ]: non-standard residue; d: D form. The star is where a group is joined. 2Nal = N[C@@H](Cc1ccc2ccccc2c1)C(=O)O; Octanoyl = CCCCCCCC(=O)*; Dab = NCC[C@H](N)C(=O)O; Hexanoyl = CCCCCC(=O)*; AEEA = NCCOCCOCC(=O)O; Butyryl = CCCC(=O)*
Measured %B at peak of elution in analytical HPLC (hydrophobicity) accompanies every entry in the list below.
Report as a plain number; the unit % is understood.

Examples with answers:
# MOLECULE, UNITS LABEL, REPORTED VALUE
rows = [
    ("CCCC(=O)NCC[C@@H]1NC(=O)[C@H](CCN)NC(=O)[C@H](CCCNC(=N)N)NC(=O)[C@H](Cc2ccc3ccccc3c2)NC(=O)[C@H](CCN)NC(=O)[C@H](CC(N)=O)NC(=O)[C@H](CCN)NC(=O)[C@H](Cc2ccc3ccccc3c2)NC(=O)COCCOCCNC1=O [(C4)^5] (cyclo([Dab][2Nal]R[Dab][Dab](Butyryl)[AEEA][2Nal][Dab]N))", "%", 62),
    ("CCCCCC(=O)NCC[C@@H]1NC(=O)[C@H](CCN)NC(=O)[C@H](CCCNC(=N)N)NC(=O)[C@H](Cc2ccc3ccccc3c2)NC(=O)[C@H](CCN)NC(=O)[C@H](CC(N)=O)NC(=O)[C@H](CCN)NC(=O)[C@H](Cc2ccc3ccccc3c2)NC(=O)COCCOCCNC1=O [(C6)^5] (cyclo([Dab][2Nal]R[Dab][Dab](Hexanoyl)[AEEA][2Nal][Dab]N))", "%", 65),
]

Asked: %B at peak of elution in analytical HPLC (hydrophobicity) for CCCCCCCC(=O)NCC[C@@H]1NC(=O)[C@H](CCN)NC(=O)[C@H](CCCNC(=N)N)NC(=O)[C@H](Cc2ccc3ccccc3c2)NC(=O)[C@H](CCN)NC(=O)[C@H](CC(N)=O)NC(=O)[C@H](CCN)NC(=O)[C@H](Cc2ccc3ccccc3c2)NC(=O)COCCOCCNC1=O [(C8)^5] (cyclo([Dab][2Nal]R[Dab][Dab](Octanoyl)[AEEA][2Nal][Dab]N)) ?
Given back: 69

====

# TEST METHOD NOTES: Hydrophobicity by analytical RP-HPLC (%B at peak elution)
# Format: physicochemical
# EXPERIMENTAL CONTEXT: chromatographic, percentage of mobile phase B at the peak elution time
Where a SMILES comes first, the peptide text is derived from it. [ ]: non-standard residue; d: D form. Bip = N[C@@H](Cc1ccc(-c2ccccc2)cc1)C(=O)O; 2Nal = N[C@@H](Cc1ccc2ccccc2c1)C(=O)O; Dab = NCC[C@H](N)C(=O)O; AEEA = NCCOCCOCC(=O)O
MEASURED PARAMETER: %B at peak of elution in analytical HPLC (hydrophobicity) (%)
Just the number please, in %, no unit attached.

Asked: Quick one: %B at peak of elution in analytical HPLC (hydrophobicity) of N=C(N)NCCC[C@@H]1NC(=O)[C@H](Cc2ccc3ccccc3c2)NC(=O)[C@H](CCN)NC(=O)[C@H](CC(N)=O)NC(=O)[C@H](CCN)NC(=O)[C@H](Cc2ccc3ccccc3c2)NC(=O)COCCOCCNC(=O)[C@H](Cc2ccc(-c3ccccc3)cc2)NC(=O)[C@H](CCN)NC1=O [S3(B)] (cyclo([Dab][2Nal]R[Dab][Bip][AEEA][2Nal][Dab]N)) ?
Given back: 71
